Entries and their measured binding signal follow.
Target: OsWRKY34 (Oryza sativa, UniProt Q0JBA9 1-250)
Sequence (Q0JBA9 entry or part of it): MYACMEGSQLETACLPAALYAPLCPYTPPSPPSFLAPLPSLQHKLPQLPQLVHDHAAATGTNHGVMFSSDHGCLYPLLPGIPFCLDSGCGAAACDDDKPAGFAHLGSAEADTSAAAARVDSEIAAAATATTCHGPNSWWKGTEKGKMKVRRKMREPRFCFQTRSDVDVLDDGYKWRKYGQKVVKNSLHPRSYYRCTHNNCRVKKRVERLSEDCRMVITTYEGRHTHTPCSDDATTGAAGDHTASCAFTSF
Test: protein-binding microarray (RPBM); PBS, 2% BSA, 51.3 ng/ul salmon testes DNA, 50 uM zinc acetate, 200 nM TF, 25 C, 1 h; high values mean tight binding
Conditions: protein: recombinant; tags: N-terminal polyhistidine and DsRed monomer fusion (pET32a); label: CyDye5-dUTP incorporated in the synthesized complementary strand; 3' TTTTT single-stranded linker to array surface; dsDNA, one strand shown
Over roughly 68,000 sequences, “fluorescence intensity (a.u.)” has its median near 9,100; the highest 2% begin near 16,000. The entries come from a sample that favours the highest values as a whole.

Some sequences with known binding signal results, for comparison:
[
  {
    "Sequence Record": "GCGGAGGTGGTGGTGGCCTTGGAGGAGGTGGCGGCGGAGGCGGAGTCACCTAGTGCAG",
    "binding signal": "14300 fluorescence intensity (a.u.)"
  },
  {
    "Sequence Record": "AACTTCTTGCATGTGCCTTTTTTATCATCTGCATATATTTCGGAGTCACCTAGTGCAG",
    "binding signal": "10300 fluorescence intensity (a.u.)"
  },
  {
    "Sequence Record": "GTCCGCATCGAGCCGCAGATCTTTCTCACCGCCACCGATGCGGAGTCACCTAGTGCAG",
    "binding signal": "8140 fluorescence intensity (a.u.)"
  },
  {
    "Sequence Record": "TATACTCCCTCCATTTCAAAATGTTTGACACCGTTGACTTCGGAGTCACCTAGTGCAG",
    "binding signal": "9590 fluorescence intensity (a.u.)"
  },
  {
    "Sequence Record": "GGAGAGGGAGCGGGAGAGGGAGGATTGGAGGATGTGGGGACGGAGTCACCTAGTGCAG",
    "binding signal": "8940 fluorescence intensity (a.u.)"
  },
  {
    "Sequence Record": "CTCCGACGACCCCACCGTGCCCACCCCGACCGCCGTCTCGCGGAGTCACCTAGTGCAG",
    "binding signal": "9650 fluorescence intensity (a.u.)"
  }
]

Entry ATTAGTTTTTTTTTCTATATTTAATACTCCATGCATATGTCGGAGTCACCTAGTGCAG : reported binding signal = ?
9200 fluorescence intensity (a.u.)

Entry TCCCTCTGTTCAAAATGTTTGACACCGTTGACTTTTTAAGCGGAGTCACCTAGTGCAG : reported binding signal = ?
20700 fluorescence intensity (a.u.)

Entry CCCAAAGTATTGATCGTTTTTGTTTATCATTTTGCTGGATCGGAGTCACCTAGTGCAG : reported binding signal = ?
10300 fluorescence intensity (a.u.)

Entry GACCGAGAGCAGGCGACGGGGTGGGTGGAGGTAGTGAGAACGGAGTCACCTAGTGCAG : reported binding signal = ?
9200 fluorescence intensity (a.u.)

Entry CTGGGATTTGGTGGAGCTCCTGCGGTGGGGTGCCAGTGATCGGAGTCACCTAGTGCAG : reported binding signal = ?
12200 fluorescence intensity (a.u.)

----------
Biological target: OsWRKY34 (Oryza sativa, UniProt Q0JBA9 1-250)
Assay: protein-binding microarray (RPBM); PBS, 2% BSA, 51.3 ng/ul salmon testes DNA, 50 uM zinc acetate, 200 nM TF, 25 C, 1 h; high values mean tight binding
Conditions: protein: recombinant; tags: N-terminal polyhistidine and DsRed monomer fusion (pET32a); label: CyDye5-dUTP incorporated in the synthesized complementary strand; 3' TTTTT single-stranded linker to array surface; dsDNA, one strand shown
In all, about 68,000 sequences were measured (“fluorescence intensity (a.u.)”: median about 9,100, highest 2% from about 16,000 on). The list comes from a sample in which the highest values are over-represented; it also holds close analogues and randomly drawn sequences.
Assay Readout: binding signal

Some sequences with known binding signal results, for comparison:
[
  {
    "Sequence Record": "GCGGTGGAGAGTGGTGGGAGGTTGGGGAGAAGGCGGCGGCCGGAGTCACCTAGTGCAG",
    "Result": "14800 fluorescence intensity (a.u.)"
  },
  {
    "Sequence Record": "GGTTTGGTGGCGGAAAAGGTGGAGGCCTAGGTGGTGGTGGCGGAGTCACCTAGTGCAG",
    "Result": "8660 fluorescence intensity (a.u.)"
  },
  {
    "Sequence Record": "GCCTCCATCCACCTCGCCCATCCCTACACTCTACTACTCCCGGAGTCACCTAGTGCAG",
    "Result": "8670 fluorescence intensity (a.u.)"
  }
]

Entry AAGGCGGGAGGTTGAGAGAGAGATAAGGGAGAGAGAGGGGCGGAGTCACCTAGTGCAG : reported binding signal = ?
8120 fluorescence intensity (a.u.)

Entry AGGTGTAATAGTATTTTGTTGTCTAATTGGTTTTGATTGTCGGAGTCACCTAGTGCAG : reported binding signal = ?
11400 fluorescence intensity (a.u.)

The origin of these recorded values is paper PMC7819943.
